From: PubChem BioAssay (NCI)

Assay: NCI Yeast Anticancer Drug Screen. Data for the mlh1 rad18 strain (AID 175)
Conditions: S. cerevisiae mlh1 rad18 strain growth inhibition; at 50.0 µM
About 79,000 compounds went through this panel and 15% of them were active in at least one assay; those are over-represented in the sample as a whole. Activity calls are given as the source filed them. No stated cut-off is given here; in the data, active means growth inhibition above about 70%; inactive means the rest.
Allowed answers: active, inactive

compound=CCCCCCCCCCCC(=O)N/N=C(\c1ccccc1)c1ccc(Cl)cc1 group_label=active
compound="COC(=O)CC1(C(=O)OC)Nc2ccc(Cl)cc2C(=O)O1 (stereo unspecified)" group_label=inactive

Hello, I am checking results. What call was entered for `Nc1ccn(CCO)c(=O)n1` ?
inactive

Hi, sorry to bother you, what did the test record for `CC/C(=N/NC(N)=O)C1C=COC=C1` ?
inactive

Given CC(C)[C@@H]1CC[C@@H](C)C[C@H]1OC(=O)/C=C1\C(C(=O)O[C@@H]2C[C@H](C)CC[C@H]2C(C)C)[C@H]2C=C[C@@H]1O2 (stereo partly specified) , state the outcome it received in this test.
inactive

Status in this test for `Nc1ccccc1CN1C(=O)CCC1=O` ?
inactive

// return assay outcome for `Cc1cc(OCCCC[N+](C)(C)Cc2ccc(Br)o2)c(C(C)C)cc1Cl`
active

For `COC(=O)c1ccccc1NC(=O)Nc1cc(Cl)ccc1OC` , which call appears in the assay record?
active

Which outcome was assigned to CC(C(O)C(F)(F)F)[N+](=O)[O-] (stereo unspecified) in this test?
inactive

Check the results log: what was the call for `CC(=O)[C@@]1(c2ccccc2)N(C(=O)c2ccccc2)[C@@]1(C)C(=O)c1ccccc1` ?
inactive

What classification did `COc1ccccc1/C=C(\C#N)C(=O)O` end up with in this test?
inactive
